- Tested on: T-47D breast
- EXPERIMENT_DESCRIPTION: NCI tumour cell line growth inhibition, 48 h
TGI values by entry

>  <COMPOUND>
N#C/C(=C/C=C(\Cl)c1ccc(Cl)cc1)C(N)=O

>  <TGI>
26.4 µM

$$$$
>  <COMPOUND>
COc1ccc2cc(C(=O)/C=C/c3cccc(Cl)c3Cl)ccc2c1

>  <TGI>
> 100 µM

$$$$
>  <COMPOUND>
NC(=O)c1n[nH]n(-c2ccccc2)c1=O

>  <TGI>
> 100 µM

$$$$
>  <COMPOUND>
O=[N+]([O-])c1ccc(Cl)cc1C1ON=C(c2ccccc2)N1C12CC3CC(CC(C3)C1)C2 (configuration not stated)

>  <TGI>
> 100 µM

$$$$
>  <COMPOUND>
O=C1c2cccnc2-c2nc(/C=C/c3ccccc3)cc3c2c1nc1ccccc13

>  <TGI>
> 78.7 µM

$$$$
>  <COMPOUND>
COc1ccc2nc(NCCCNCCO)c3sc4ccc(F)cc4c(=O)c3c2c1

>  <TGI>
3.93 µM

$$$$
>  <COMPOUND>
CC1=C(C(=O)OCCO[N+](=O)[O-])C(c2ccccc2C(F)(F)F)C(C(=O)OC(C)C)=C(C)N1 (configuration not stated)

>  <TGI>
> 100 µM

$$$$
>  <COMPOUND>
O=C(Nc1cnn2ccc(N3CCC[C@@H]3c3cc(F)ccc3F)nc12)N1CC[C@H](O)C1

>  <TGI>
> 100 µM

$$$$
>  <COMPOUND>
COC1=CC(=O)C(O)=C(C[C@@]2(C)[C@@H]3CCC[C@H](COC(=O)CCCCCNC(=O)OC(C)(C)C)[C@@]3(C)CC[C@@H]2C)C1=O

>  <TGI>
> 10 µM

$$$$
>  <COMPOUND>
COc1nn(Cc2ccccc2F)c2ccc([N+](=O)[O-])cc12

>  <TGI>
> 100 µM

$$$$
>  <COMPOUND>
Cn1c(-c2csc(-c3ccc(Cl)cc3)n2)n[nH]c1=S

>  <TGI>
> 100 µM

$$$$
>  <COMPOUND>
N[C@@H]1c2c(Br)sc(Br)c2[C@H](O)[C@@H]1O

>  <TGI>
> 100 µM

$$$$
>  <COMPOUND>
COc1cc2cc(Oc3ccc(NC(=O)Nc4ccccc4)cc3)c(C)nc2cc1OCCN1CCCCC1

>  <TGI>
14.5 µM

$$$$
>  <COMPOUND>
Clc1ccc(OCc2nnc3sc(-c4ccc(-c5ccc(Cl)cc5Cl)o4)nn23)c(Cl)c1

>  <TGI>
54.6 µM

$$$$
>  <COMPOUND>
CCCCCCCCOc1ccc(/C=N/Nc2cc(C)nc3ccc(Cl)cc23)cc1

>  <TGI>
4.09 µM

$$$$
>  <COMPOUND>
COc1cc(/C=C/C(=O)c2cc(F)c(Cl)cc2Cl)cc(OC)c1OC

>  <TGI>
> 100 µM

$$$$
>  <COMPOUND>
C/C=C(\C)C(=O)O[C@@H]1C(O)[C@H]2OC(COC(=O)CCC(=O)CCCCCC[C@H](CCCCC)O[C@@H]3OC(C)[C@H](OC(C)=O)C(O)[C@H]3O2)[C@H]1OC(=O)/C=C/c1ccccc1 (some centres not stated)

>  <TGI>
0.761 µM

$$$$
>  <COMPOUND>
O=[N+]([O-])CC(SCc1ccccc1)c1ccc2c(c1)OCO2 (configuration not stated)

>  <TGI>
47.7 µM

$$$$
>  <COMPOUND>
O=S(=O)(NC(=S)Nc1ccccc1)c1ccc(N2N=C3c4ccccc4CC3C2c2cccs2)cc1 (configuration not stated)

>  <TGI>
> 100 µM

$$$$
>  <COMPOUND>
CC(C)(C)c1cc(-c2ccc(-c3cc(C(C)(C)C)c(O)c(C(C)(C)C)c3)cc2)cc(C(C)(C)C)c1O

>  <TGI>
> 100 µM

$$$$
>  <COMPOUND>
CC(C)(C)OC(=O)NCCCCCCCCn1c2c(c3ccccc3c1=O)C(=O)c1ccccc1-2

>  <TGI>
> 50 µM

$$$$
>  <COMPOUND>
O=C(O)c1c(CC(Cc2ccc3c(c2)CCCC3)C(=O)O)ccc2c1CCCC2 (configuration not stated)

>  <TGI>
> 100 µM

$$$$
>  <COMPOUND>
NCCNCC(O)CO (configuration not stated)

>  <TGI>
> 100 µM

$$$$
>  <COMPOUND>
Nc1nc2ccc([C@@H]3Nc4ccc5[nH]ncc5c4[C@H]4[C@H]5CCC(C5)[C@H]43)cc2s1

>  <TGI>
6.16 µM

$$$$
>  <COMPOUND>
CCCCCCCCCCCCCCCCCCNc1ccn(C2OC(COP(=O)(O)O)C(O)C2O)c(=O)n1 (configuration not stated)

>  <TGI>
> 100 µM

$$$$
>  <COMPOUND>
OC1C(O)C(O)C(O)C(O)C1O (configuration not stated)

>  <TGI>
> 1000 µM

$$$$
>  <COMPOUND>
COc1cc(/C=C2\N=C(c3ccccc3)N(C3Nc4cc5c(cc4S3)NC(N3C(=O)/C(=C/c4cc(OC)c(OC)c(OC)c4)N=C3c3ccccc3)S5)C2=O)cc(OC)c1OC (configuration not stated)

>  <TGI>
> 100 µM

$$$$
>  <COMPOUND>
O=C(O)c1c(-c2c3ccc(=O)cc-3oc3cc(O)ccc23)cc2ccccc2c1-c1ccccc1

>  <TGI>
> 100 µM

$$$$
>  <COMPOUND>
COc1ncc(-c2nc3c(n2C(C)C)[C@H](c2ccc(Cl)cc2)N(c2cc(Cl)cn(C)c2=O)C3=O)c(OC)n1

>  <TGI>
> 100 µM

$$$$
>  <COMPOUND>
COC1(OC)N=C(N)C2(C#N)C(C)CC(=O)N(N(C)C)C12C#N (configuration not stated)

>  <TGI>
> 100 µM

$$$$
>  <COMPOUND>
CN(C)CCNC(=O)c1cccc2cc3ccccc3nc12

>  <TGI>
10.6 µM

$$$$
>  <COMPOUND>
C=C1CC/C=C(/C(=O)O)CC[C@H]2[C@@H]1CC2(C)C

>  <TGI>
> 100 µM

$$$$
